- assay.text: chemical genetic growth profiling, strain panel (AID 1159580);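 note: tested at 20 µM; growth read once vehicle control cultures reached saturation at 30 °C; 1 = growth at the plate median or of vehicle wells; lower values mean less growth of the strain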
- run.parameters: S. cerevisiae deletion strains, growth OD, locus YLR102C, strain apc9
Out of some 5,500 compounds screened, about 2,000 (36%) were called active. Roughly 18% stayed inconclusive and do not appear here. Cut-off read from the data, not from the text of the source: active = normalized growth mostly below about 0.91 (no sharp cut-off); inconclusive = no clear call, values can overlap the other calls; inactive = mostly above about 0.92. Some of the results follow.
Hi! Could you answer with just one of these? active, inactive

[ask] What did this assay record as the result for O=C(O)CCC1NCC2CC1CN1CCCCC21 (stereo not given) ?
[reply] inactive

[ask] // repeat for CCN1C[C@@]2(COC)C3[C@@H](OC)[C@H]4[C@@H]1[C@]3(C(OC)C[C@H]2O)C1C[C@@]2(O)[C@H](OC(=O)c3ccccc3)C1[C@]4(OC(C)=O)[C@@H](O)[C@@H]2OC (stereo not given in full) and report
[reply] inactive

[ask] Lookup FC(F)(F)c1cccc(N2CCNCC2)c1
[reply] inactive

[ask] What do you get for CCCNC(=O)NS(=O)(=O)c1ccc(Cl)cc1 ?
[reply] inactive

[ask] Please answer likewise for NCCCNCCSP(=O)(O)O
[reply] inactive

[ask] Now try Fc1ccc([C@@H]2CCNC[C@H]2COc2ccc3c(c2)OCO3)cc1 .
[reply] inactive

[ask] Subsequent entry: COc1c(C)c2c(c(O)c1C/C=C(\C)CCC(=O)O)C(=O)OC2
[reply] active

[ask] Then CN(C)C(=O)Oc1ccc[n+](C)c1 ?
[reply] inactive

[ask] # iterate: c1ccc2c(CC3=NCCN3)cccc2c1
[reply] inactive

[ask] Entry CC(=O)O[C@H]1C[C@@]2(C)[C@@H](C[C@@H](O)C3[C@]2(C)CC[C@H]2[C@H](C)[C@H](O)CC[C@]32C)/C1=C(/CCC=C(C)C)C(=O)O (stereo not given in full) please
[reply] inactive

###

- assay.text: chemical genetic growth profiling, strain panel (AID 1159580)
- run.parameters: S. cerevisiae deletion strains, growth OD, locus YJL166W, strain qcr8
Out of some 5,500 compounds screened, about 2,000 (36%) were called active. Not shown: some 18% with an inconclusive outcome. No stated cut-off is given here; in the data, active means normalized growth mostly below about 0.91 (no sharp cut-off); inconclusive means no clear call, values can overlap the other calls; inactive means mostly above about 0.92. The list shows a part of the results.
Entry note: the call must match one of 1 = active, 0 = inactive

[ask] Look up the recorded call for CC(=O)O[C@H]1C[C@@]2(C)[C@@H](C[C@@H](O)C3[C@]2(C)CC[C@H]2[C@H](C)[C@H](O)CC[C@]32C)/C1=C(/CCC=C(C)C)C(=O)O (some centres undefined) in this test.
[reply] 0

[ask] # iterate: NC1(C(=O)O)CC1
[reply] 0

[ask] Same thing, different compound: C=C[C@@]1(C)CC(=O)[C@@]2(O)[C@](C)(O1)[C@@H](OC(C)=O)[C@@H](O)C1C(C)(C)CC[C@H](O)[C@@]12C (some centres undefined)
[reply] 0

[ask] # iterate: CC(C)c1nc(N(C)S(C)(=O)=O)nc(-c2ccc(F)cc2)c1/C=C/[C@@H](O)C[C@@H](O)CC(=O)O
[reply] 0

[ask] Try NCCCCC(=O)O next.
[reply] 0

[ask] Field entry: CC1[C@H](C)OC(=O)CC(O)CC(O)CC(O)CCC(O)C(O)C[C@]2(O)CC(O)C(C(=O)O)C(CC(OC3O[C@H](C)[C@@H](O)[C@H](N)[C@@H]3O)/C=C/C=C/C=C/C=C/CC/C=C/C=C/[C@H](C)[C@H]1O)O2 (some centres undefined)
[reply] 1

[ask] And CC1OC(O[C@H]2/C=C/C=C/C=C/C=C/C=C/C=C/C=C/[C@H](C)[C@@H](O)[C@@H](C)[C@H](C)OC(=O)CC(O)CC(O)CCC(O)C(O)CC(O)C[C@]3(O)C[C@H](O)C(C(=O)O)C(C2)O3)C(O)[C@H](N)C1O (some centres undefined) ?
[reply] 0

[ask] Repeat with O=c1oc2ccccc2cc1O
[reply] 0

[ask] And then CC(=O)O[C@]1(C)CC[C@@]23CC1C(C)(C)[C@@H]2CC[C@H]3C , what is it?
[reply] 0

[ask] Field entry: c1ccc2c(CC3=NCCN3)cccc2c1
[reply] 0

[ask] Try this compound next: C[C@@H]1CC[C@H]2C(C)(C)C3CC12CC[C@@]3(C)O (some centres undefined)
[reply] 1

[ask] # repeat for CC(=O)Oc1c2c(c3c(c1CC=C(C)C)O[C@]14C(=C[C@@H]5CC1C(C)(C)OC4(C/C=C(\C)C(=O)O)C5=O)C3=O)OC(C)(CCC=C(C)C)C=C2 (some centres undefined)
[reply] 0

[ask] Here is the next compound: CN(C/C=C/C#CC(C)(C)C)Cc1cccc2ccccc12
[reply] 1

[ask] Queued: CC12CCCCC1(Br)[N+](=O)N2[O-] (centres undefined)
[reply] 0

[ask] Could you do the same for COc1ccc(-c2oc3cc(OC)c(OC)c(OC)c3c(=O)c2OC)cc1 , please?
[reply] 0

[ask] Lookup C[C@@H]1CC2C3CCC4=CC(=O)C=C[C@]4(C)[C@@]3(F)[C@@H](O)C[C@]2(C)[C@@]1(O)C(=O)CO (some centres undefined)
[reply] 0

[ask] Follow-up entry: O=C(O)CCCCCCCC(=O)O
[reply] 0

[ask] Another compound to check: COc1ccc2oc3ccccc3c(=O)c2c1
[reply] 1

[ask] Another: NC1(C(=O)O)CCCC1
[reply] 0

###

For each of the compounds below, state its normalized growth.
- assay.text: chemical genetic growth profiling, strain panel (AID 1159580);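 note: tested at 20 µM; growth read once vehicle control cultures reached saturation at 30 °C; 1 = growth at the plate median or of vehicle wells; lower values mean less growth of the strain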
- run.parameters: S. cerevisiae deletion strains, growth OD, locus YOL006C, strain TOP1, active compounds read low
In all, about 5,500 compounds went through this assay and about 2,000 (36%) were called active. Another 18% or so got no clear call; they are omitted. The list shows a part of the results.
In your answer, state the number alone without any accompanying words.

[ask] Which normalized growth value belongs to O=C(O)COc1ccc(Cl)cc1Cl ?
[reply] 1.08

[ask] Queued: CCCCCCCCCCCC(=O)OCC(COP(=O)(O)OCC(O)COP(=O)(O)OCC(COC(=O)CCCCCCCCCCC)OC(=O)CCCCCCCCCCC)OC(=O)CCCCCCCCCCC (configuration not stated)
[reply] 0.29

[ask] NCCCC(=O)O , same question.
[reply] 1.03

[ask] Next compound up: Clc1ccc(CSC(Cn2ccnc2)c2ccc(Cl)cc2Cl)cc1 (configuration not stated)
[reply] 0.0991

[ask] Another compound: FC(F)(F)c1ccc2[nH]c(=S)[nH]c2c1
[reply] 0.997

[ask] // next record COP(=S)(OC)Oc1ccc([N+](=O)[O-])cc1
[reply] 0.885

[ask] Could you do the same for COc1ccc(C(=O)c2sc(Nc3ccccc3)nc2-c2ccccc2)cc1 , please?
[reply] 0.893

[ask] Next: NNC(=O)c1cnn(-c2ccc(Cl)cc2)c1C(F)(F)F
[reply] 1.02

[ask] Subsequent entry: Clc1ccc(COC(Cn2ccnc2)c2ccc(Cl)cc2Cl)c(Cl)c1 (configuration not stated)
[reply] 0.0836

[ask] Next entry: O=NN(CCCl)C(=O)NCCCl
[reply] 0.789

[ask] Now consider CC1(C)C(=O)[C@@H]2O[C@@H]2[C@@]2(C)C1C[C@@H](O)[C@]1(C)C2CC[C@@]2(C)[C@H](c3ccoc3)OC(=O)C3OC321 (some centres not stated) and answer again.
[reply] 0.992

[ask] Also CC(=O)O[C@H]1CC[C@@]2(C)C(C[C@@H](OC(C)=O)[C@]3(C)C2CC[C@@]2(C)[C@H](c4ccoc4)OC(=O)[C@H]4O[C@]423)C1(C)C (some centres not stated) , if possible.
[reply] 1.04

###

- assay.text: chemical genetic growth profiling, strain panel (AID 1159580);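 note: tested at 20 µM; growth read once vehicle control cultures reached saturation at 30 °C; 1 = growth at the plate median or of vehicle wells; lower values mean less growth of the strain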
- run.parameters: S. cerevisiae deletion strains, growth OD, locus YDR297W, strain sur2, active compounds read low
Among all 5,500 compounds or so, about 2,000 (36%) were called active. Inconclusive results (about 18%) are left out. Some of the results follow.
measurement.type: normalized growth
When you answer, write just the number.

[ask] # query: normalized growth of entry NCCCNCCSP(=O)(O)O
[reply] 0.983

[ask] Do the same for C[C@]12CCC3c4ccc(O)cc4CCC3C1CCC2=O (stereo not given in full) please
[reply] 1.01

[ask] Could you do the same for CC1(C)C(=O)[C@@H]2O[C@@H]2[C@@]2(C)C1C[C@@H](O)[C@]1(C)C2CC[C@@]2(C)[C@H](c3ccoc3)OC(=O)C3OC321 (stereo not given in full) , please?
[reply] 0.99

[ask] And for Cc1onc(-c2ccccc2)c1-c1ccc(S(N)(=O)=O)cc1 ?
[reply] 1

[ask] Query CC(=O)Oc1ccc2c(c1)CCC1C2CC[C@]2(C)C(=O)CCC12 (stereo not given in full) next
[reply] 0.99

###

For each entry below, report its normalized growth value.
- assay.text: chemical genetic growth profiling, strain panel (AID 1159580);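 note: tested at 20 µM; growth read once vehicle control cultures reached saturation at 30 °C; 1 = growth at the plate median or of vehicle wells; lower values mean less growth of the strain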
- run.parameters: S. cerevisiae deletion strains, growth OD, locus YEL061C, strain CIN8, active compounds read low
Hit rate of the full screen: of about 5,500 compounds, about 2,000 (36%) were called active. Not shown: some 18% with an inconclusive outcome. Some of the results follow.
Lab note: jot down the number only; don't add units.

[ask] // returns reported normalized growth for input CCCn1c(=O)c2[nH]c(C3CCCC3)nc2n(CCC)c1=O
[reply] 0.994

[ask] How about this compound: Cc1cc2c3c(c1)c(O)cc(=O)n3CCC2
[reply] 1.01

[ask] C=C[C@@]1(C)CC(=O)[C@@]2(O)[C@](C)(O1)[C@@H](OC(C)=O)[C@@H](O)C1C(C)(C)CC[C@H](O)[C@@]12C (stereo partly specified) ?
[reply] 0.983

[ask] Now the same for COC[C@]12CN(C=O)C3[C@@H]4[C@H](OC)C1[C@]3(C1CC3(O)C(OC)C(O)C4(OC(C)=O)C1C3OC(=O)c1ccccc1)[C@@H](OC)C[C@H]2O (stereo partly specified)
[reply] 1.01

[ask] Let us now turn to CCOC(=O)CNc1ccc(Cl)c(Cl)c1
[reply] 0.986

[ask] Now consider COc1c(C)c2c(c(O)c1C/C=C(\C)CCC(=O)O)C(=O)OC2 .
[reply] 0.863

[ask] Now consider O=S(=O)(NCc1ccc2c(c1)OCO2)c1ccc(F)c(Cl)c1 .
[reply] 0.965

[ask] Then what about the compound NC(=O)NC1NC(=O)NC1=O (stereo unspecified) ?
[reply] 1

[ask] Also need Brc1cccc(C=NCc2ccccc2)c1 , thanks.
[reply] 0.621

[ask] Try O=C1c2ccccc2C2(c3ccccc3)NCCN12 (stereo unspecified) next.
[reply] 1.02

[ask] How about this compound: N/C(=N/OC(=O)Nc1ccccc1)c1ccc(C2SCCS2)cc1
[reply] 0.833
